# TEST_TARGET: Cytochrome P450 3A4 (Homo sapiens) (UniProt P08684)
# Sequence (P08684 whole entry, looked up): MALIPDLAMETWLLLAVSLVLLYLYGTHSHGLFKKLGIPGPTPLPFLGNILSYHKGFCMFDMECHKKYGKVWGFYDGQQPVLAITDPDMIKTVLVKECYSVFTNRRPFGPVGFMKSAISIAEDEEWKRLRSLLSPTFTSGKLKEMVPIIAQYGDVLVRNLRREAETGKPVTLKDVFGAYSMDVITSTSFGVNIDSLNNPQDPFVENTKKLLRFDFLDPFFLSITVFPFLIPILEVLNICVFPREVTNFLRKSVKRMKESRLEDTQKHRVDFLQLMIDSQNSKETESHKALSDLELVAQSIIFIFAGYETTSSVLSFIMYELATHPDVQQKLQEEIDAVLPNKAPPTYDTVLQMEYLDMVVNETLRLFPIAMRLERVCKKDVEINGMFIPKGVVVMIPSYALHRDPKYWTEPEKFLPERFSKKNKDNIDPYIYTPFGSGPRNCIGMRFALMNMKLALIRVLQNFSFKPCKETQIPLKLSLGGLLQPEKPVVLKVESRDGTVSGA
# ASSAY_OVERVIEW: qHTS Assay for Activators of Cytochrome P450 3A4 (AID 885); further: nearly all actives have a fitted effect of over 65% in size
# ASSAY_SETUP: recombinant CYP3A4, Luciferin-PPXE luminescence, 60 min; series mostly up to 57.1 µM
Active and inactive are the calls of the source. The call rests on the fitted dose curve; in most records, active means well fitted activation curve with a large enough effect; inconclusive means small, poorly fitted or top-dose-only effect; inactive means no such curve, though single readings can be large or run the other way.
Bench note: report the call from active, inactive

Observe how each entry below is paired with its result.
- COMPOUND: "COc1cccc2c1cc([N+](=O)[O-])c1c(C(=O)O)cc3c(c12)OCO3"
  LABEL_CLASS: "inactive"
- COMPOUND: "CC(C)C[C@H]1C(=O)N2CCCC2[C@]2(O)O[C@](NC(=O)[C@@H]3C=C4c5cccc6[nH]cc(c56)CC4N(C)C3)(C(C)C)C(=O)N12 (some centres not stated)"
  LABEL_CLASS: "inactive"
- COMPOUND: "O=c1cc(-c2ccc(O)c(O)c2)oc2cc(O)cc(O)c12"
  LABEL_CLASS: "inactive"

What is the recorded call for this compound in the test? "COc1ccc2[nH]cc(C3=CCNCC3)c2c1"
inactive

What is the recorded call for this compound in the test? "S=C=Nc1cccc(C2(N3CCCCC3)CCCCC2)c1"
inactive

What is the recorded call for this compound in the test? "Nc1nc2ccc(Cl)cc2c2nc(-c3ccco3)nn12"
inactive

---

# ASSAY_OVERVIEW: qHTS for Inhibitors of the Functional Ribonucleoprotein Complex (vRNP) of Lymphocytic Choriomeningitis Arenaviruses (LCMV): Viability assay - alamar blue signal for LCMV Primary Screen (AID 1347085); further: nearly all actives have a fitted effect of over 80% in size
# ASSAY_SETUP: alamar blue viability counter-screen, LCMV vRNP screen cells; series mostly up to 57.5 µM
Results filed as inconclusive are left out. Active and inactive are the calls of the source. The call rests on the fitted dose curve; tested in HEK293 reporter line.
Bench note: report the call from active, inactive

Observe how each entry below is paired with its result.
- MOLECULE: "COc1cc(NC(=O)c2ccc(-c3ccc(Cl)cc3)o2)cc(OC)c1"
  LABEL_CLASS: "active"
- MOLECULE: "C#C[C@]1(O)CC[C@H]2[C@H]3CCc4cc(OC)ccc4[C@H]3CC[C@@]21C"
  LABEL_CLASS: "active"

What is the recorded call for this molecule in the test? "CCOP(=S)(OCC)SCSCC"
inactive

What is the recorded call for this molecule in the test? "CC(C)c1noc(N2CCC(COc3ccc(-c4ccc(S(C)(=O)=O)cc4)nc3)CC2)n1"
inactive

What is the recorded call for this molecule in the test? C=C(C)C(Cc1c(OC)ccc(C(=O)/C=C/c2ccc(O)cc2)c1O)OO (centres undefined)
inactive

What is the recorded call for this molecule in the test? "O=c1c(O)c(-c2ccccc2)oc2ccccc12"
inactive

What is the recorded call for this molecule in the test? "CC[C@@]1(O)C(=O)OCc2c1cc1n(c2=O)Cc2cc3cc(O)ccc3nc2-1"
active

---

# TEST_TARGET: Calcium and integrin-binding protein 1 (Homo sapiens) (UniProt Q99828)
# Sequence (Q99828 whole entry, looked up): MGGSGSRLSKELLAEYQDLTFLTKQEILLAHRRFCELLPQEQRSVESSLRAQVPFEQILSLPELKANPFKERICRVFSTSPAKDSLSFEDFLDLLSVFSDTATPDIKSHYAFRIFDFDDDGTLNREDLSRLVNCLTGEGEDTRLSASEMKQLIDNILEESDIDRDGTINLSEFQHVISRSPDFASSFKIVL
# ASSAY_OVERVIEW: Primary qHTS for Identification of Calcium Integrin Binding Protein 1 (CIB1) Competitor (AID 1508620);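 further: GST tagged CIB1 binding a fluorescein labelled alphaIIb integrin peptide tracer; top concentration of the series differs between compounds; on the % scale 0 is the no-effect control and ±100 the full control effect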
# ASSAY_SETUP: CIB1-GST / FITC-alphaIIb peptide fluorescence polarization; series mostly up to 114 µM
# Source text: Assay Provider: Ulhas P. Naik, PhD Sidney Kimmel Medical College Thomas Jefferson University, Philadelphia, PA Primary function of platelets is to maintain hemostasis. At the site of vascular injury, platelets adhere to adhesive proteins such as collagen and von Willebrand factor. […] PROTOCOL TABLES SEQUENCE No. (1, 2, 3, etc.); […] […] 7; ViewLux Fluorescent Polization Read: excitation = 480(20) / emission = 540(25) S and P; FITC Dichroic mirror.
Inconclusive results are not listed. Activity calls are given as the source filed them. Calls follow the shape of the dose curve; as a rule, active = well fitted inhibition curve with a large enough effect; inconclusive = small, poorly fitted or top-dose-only effect; inactive = flat fitted curve, though single readings scatter.
REPORTED_METRIC: activity change, negative = inhibition

Consider the reported activity change, negative = inhibition for these compounds:
- MOL: "CN1CCc2cc3c(cc2[C@H]1[C@@H]1OC(=O)c2c1ccc1c2OCO1)OCO3"
  activity change, negative = inhibition: "inactive"
- MOL: "NCCCCCNC1(c2ccccc2)CCCCC1"
  activity change, negative = inhibition: "inactive"
- MOL: "COc1cc(N2CCN(C)CC2)ccc1N"
  activity change, negative = inhibition: "inactive"
- MOL: "C=C1[C@@]23C(=O)O[C@H](C)[C@]24O[C@@]2(C(=C)[C@]5(C=CC(=O)OC5(C)C)CC[C@]32C)[C@H](O)[C@@]1(C)OC4=O"
  activity change, negative = inhibition: "inactive"

Fill blank: measured activity change, negative = inhibition of the compound "CC[C@H](C)[C@H](NC(=O)[C@H]1CCCCN1C)C(=O)N(COC(=O)CC(C)C)[C@H](C[C@@H](OC(C)=O)c1nc(C(=O)N[C@@H](Cc2ccc(O)cc2)C[C@H](C)C(=O)O)cs1)C(C)C" is ____.
1.44% [at 2.24 µM] (inactive)

---

# ASSAY_OVERVIEW: Primary qHTS to identify inhibitors of SARS-CoV-2 cell entry (AID 1645846); further: nearly all actives have a fitted effect of over 45% in size
# ASSAY_SETUP: SARS-CoV-2 pseudovirus cell entry assay, luminescence; series mostly up to 57.1 µM
Results filed as inconclusive are left out. Activity calls are given as the source filed them. The call rests on the fitted dose curve.
Bench note: report the call from 1 (active), 0 (inactive)

What is the recorded call for this compound in the test? C[C@H]1CCC/C=C/C2C[C@H](O)C[C@H]2[C@H](O)/C=C/C(=O)O1 (stereo not given in full)
1

What is the recorded call for this compound in the test? "O=C1C(c2c(O)[nH]c3ccccc23)=Nc2ccccc21"
0

What is the recorded call for this compound in the test? COc1ccc2cc(-c3nc(-c4ccc(S(C)=O)cc4)[nH]c3-c3ccncc3)ccc2c1 (stereo not given)
1

What is the recorded call for this compound in the test? "CC1=C(/C=C/C(C)=C/C=C/C(C)=C\C(=O)O)C(C)(C)CCC1"
0

What is the recorded call for this compound in the test? "Cc1c(C(N)=O)cc([N+](=O)[O-])cc1[N+](=O)[O-]"
0

---

# System: Tov112D
# ASSAY_OVERVIEW: Primary qHTS to identify gynecologic anti-cancer compounds using libraries of approved drugs and bioactive compounds (AID 1345084); further: nearly all actives have a fitted effect of over 55% in size
# ASSAY_SETUP: Gynecologic cancer cell panel viability, ATPlite luminescence, 48 h; series mostly up to 57.5 µM
# From the text: National Center for Advancing Translational Sciences [NCATS] Assay Overview: Chemotherapeutic drug responses vary from cancer to cancer and from patient to patient. […] ATPlite is a luminescence based assay reliant on the conversion of a luciferase substrate to light in the presence of ATP. As a cytotoxic compound will suppress growth and decrease the number of cells, the concentration of ATP will decrease, and less light signal will be detected in the well. […]
Records with an inconclusive call do not appear. The source made the active and inactive calls. Calls come from the whole dose curve; as a rule, active = well fitted cell-killing curve with a large enough effect; inconclusive = small, poorly fitted or top-dose-only effect, or effect the other way; inactive = flat fitted curve, though single readings scatter.
Bench note: report the call from 1 = active, -1 = inactive

- MOLECULE: "CC12CCC3C(C1)c1c(cc(O)c(C(=O)c4ccccc4)c1OC3(C)C)O2 (configuration not stated)"
  TEST_TARGET: "Tov112D"
  LABEL_CLASS: -1
- MOLECULE: "Oc1ccc2c(c1)C13CCCC[C@H]1[C@@H](C2)N(CC1CCC1)CC3"
  TEST_TARGET: "Tov112D"
  LABEL_CLASS: -1
- MOLECULE: "C[C@]12CC[C@H]3[C@@H](CCC4=C/C(=N/OCC(=O)O)CC[C@@]43C)[C@@H]1CC[C@@H]2O"
  TEST_TARGET: "Tov112D"
  LABEL_CLASS: -1
- MOLECULE: "OC(CNc1ccccc1)Cn1c2ccc(Br)cc2c2cc(Br)ccc21 (configuration not stated)"
  TEST_TARGET: "Tov112D"
  LABEL_CLASS: -1
- MOLECULE: "CC(=O)O[C@H]1C(=O)[C@]2(C)C(O)C[C@H]3OC[C@@]3(OC(C)=O)[C@H]2[C@H](OC(=O)c2ccccc2)[C@]2(O)C[C@H](O)C(C)=C1C2(C)C (some centres not stated)"
  TEST_TARGET: "Tov112D"
  LABEL_CLASS: -1
- MOLECULE: "N#Cc1ccccc1-c1cc(-c2ccccn2)cn(-c2ccccc2)c1=O"
  TEST_TARGET: "Tov112D"
  LABEL_CLASS: -1
- MOLECULE: "CN(C)c1cc2c(cc1Sc1nc3c(N)nccc3n1CCNCC(C)(C)C)OCO2"
  TEST_TARGET: "Tov112D"
  LABEL_CLASS: -1
- MOLECULE: "N#Cc1cn([C@@H]2O[C@H](CO)[C@H](O)[C@@H]2O)c2ncnc(N)c12"
  TEST_TARGET: "Tov112D"
  LABEL_CLASS: 1
- MOLECULE: "COC1C=CC23c4cc5c(cc4COC2(O)CN(C)C3C1)OCO5 (configuration not stated)"
  TEST_TARGET: "Tov112D"
  LABEL_CLASS: -1
- MOLECULE: "CN1C(=O)N(c2ccc(C#N)c(C(F)(F)F)c2)C(=O)[C@@]1(CO)c1ccccc1"
  TEST_TARGET: "Tov112D"
  LABEL_CLASS: -1

What is the recorded call for this molecule in the test? "C=C1CC[C@H]2[C@@H](/C=C(\C)C(=O)[C@@]3(OC(C)=O)C[C@H](C)[C@H](OC(=O)c4ccccc4)[C@@H]3[C@H]1OC(C)=O)C2(C)C"
-1

What is the recorded call for this molecule in the test? "C[C@H](CCC(=O)O)C[C@H](C)C[C@H](C)C(=O)/C=C(\O)[C@H](C)C[C@H](C)C/C=C/[C@@H](C)[C@@H](O)[C@@H](C)[C@@H](O)C[C@@H]1CC[C@@](C)([C@H]2CC[C@@](C)([C@@H](C)O)O2)O1"
-1

What is the recorded call for this molecule in the test? "CCOC(=O)C1(CCc2ccccc2)CCN(Cc2ccc(NC(C)=O)cc2)CC1"
-1

What is the recorded call for this molecule in the test? CC1=CC2/C=C(\C)CCC(O)C(O)/C=C/C(=O)OC23C(=O)NC(CC(C)C)C3C1C (configuration not stated)
-1

What is the recorded call for this molecule in the test? "CC(C)[C@H](NC(=O)c1nn(Cc2ccc(F)cc2)c2ccccc12)C(N)=O"
-1

What is the recorded call for this molecule in the test? "CC(=O)OC[C@]12C[C@H](OC(=O)CC(C)C)C(C)=C[C@H]1O[C@@H]1[C@H](O)[C@@H](O)[C@@]2(C)[C@]12CO2"
1

What is the recorded call for this molecule in the test? "OCc1nnc2n1-c1ccc(Cl)cc1C(c1ccccc1Cl)=NC2"
-1

The reported measurements were obtained from PubChem BioAssay (NCATS).
